# assay.target: His-GST-TVMV-hRIPK1(1-324) (Homo sapiens (Human))
# Sequence (Q13546 1-324): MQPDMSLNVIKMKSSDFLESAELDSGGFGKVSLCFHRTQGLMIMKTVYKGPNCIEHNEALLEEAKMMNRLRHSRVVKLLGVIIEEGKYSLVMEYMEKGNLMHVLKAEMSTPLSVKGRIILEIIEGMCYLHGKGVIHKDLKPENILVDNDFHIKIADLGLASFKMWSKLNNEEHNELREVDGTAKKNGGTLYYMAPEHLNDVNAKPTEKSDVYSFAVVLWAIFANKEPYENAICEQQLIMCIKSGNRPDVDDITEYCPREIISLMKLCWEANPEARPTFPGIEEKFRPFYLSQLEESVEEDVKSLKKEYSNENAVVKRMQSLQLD
# assay.notes: RIPK1 HTRF Binding Assay
# reported.conditions: HTRF binding, 1 h at rt; read-out: RIPK1 (IC50)
measurement.label: log10(IC50) (log10 of the value in µM)
Please keep in mind that the values are log10 of IC50 expressed in µM.

> print(dat)
                                   compound                              assay.target  value.reported
1  COc1ncc(-c2ccc3nc(NC(C)=O)cn3n2)cc1C(=O)N[C@H](C)c1cc(C(F)(F)F)ccc1F  His-GST-TVMV-hRIPK1(1-324) (Homo sapiens (Human))           -0.71
2  COc1nc(C)c(-c2ccc3nc(NC(C)=O)cn3n2)cc1C(=O)NCc1ccccc1OCC1CC1  His-GST-TVMV-hRIPK1(1-324) (Homo sapiens (Human))           -2.52

Reported log10(IC50), compound CC(=O)Nc1cn2nc(-c3ccc(C)c(C(=O)NCc4cc(C(=O)N5CCC(C)(C)C5)ccc4F)c3)ccc2n1 : ____
-0.79

Entry [2H]C([2H])([2H])Oc1ncc(-c2ccc3nc(NC(C)=O)cn3n2)cc1C(=O)NCc1ccccc1OC(F)(F)F has what log10(IC50)?
-1.48

For [2H]C([2H])([2H])Oc1nc(C)c(-c2ccc3nc(NC(C)=O)cn3n2)cc1C(=O)NCc1cc(OC(F)(F)F)ccc1F , what is its reported log10(IC50)?
-2.52
